Data origin: patent US12606543B2

Reported fraction unbound at 6 h, 1 μM values for a set of compounds
test: Plasma protein binding by equilibrium dialysis, dog; format: in vitro ADME; settings: Beagle; dog plasma, equilibrium dialysis, 37° C., 6 hours; read-out: % Bound (converted)
metricName: fraction unbound at 6 h, 1 μM

| compound | metricName | result |
| --- | --- | --- |
| [2H]C([2H])(c1c[nH]c2ccc(OCCCCN3C(=O)c4ccccc4C3=O)cc12)[C@H]1CCCN1C([2H])([2H])[2H] [(R) I-244] | fraction unbound at 6 h, 1 μM | 0.0281 |
| COCCN1CCC[C@@H]1Cc1c[nH]c2ccc(OC)cc12 [(R) I-98] | fraction unbound at 6 h, 1 μM | 0.157 |
| CC(=O)N1CCN(c2ccc(OCC3COC(Cn4ccnc4)(c4ccc(Cl)cc4Cl)O3)cc2)CC1 (stereo not drawn) [Ketoconazole, reference compound] | fraction unbound at 6 h, 1 μM | 0.0105 |

----------
molecular target: human 5-hydroxytryptamine receptor 2A (5-HT2A) (Homo sapiens, UniProt P28223); assay: biochemical; format: binding
Sequence (P28223 whole entry): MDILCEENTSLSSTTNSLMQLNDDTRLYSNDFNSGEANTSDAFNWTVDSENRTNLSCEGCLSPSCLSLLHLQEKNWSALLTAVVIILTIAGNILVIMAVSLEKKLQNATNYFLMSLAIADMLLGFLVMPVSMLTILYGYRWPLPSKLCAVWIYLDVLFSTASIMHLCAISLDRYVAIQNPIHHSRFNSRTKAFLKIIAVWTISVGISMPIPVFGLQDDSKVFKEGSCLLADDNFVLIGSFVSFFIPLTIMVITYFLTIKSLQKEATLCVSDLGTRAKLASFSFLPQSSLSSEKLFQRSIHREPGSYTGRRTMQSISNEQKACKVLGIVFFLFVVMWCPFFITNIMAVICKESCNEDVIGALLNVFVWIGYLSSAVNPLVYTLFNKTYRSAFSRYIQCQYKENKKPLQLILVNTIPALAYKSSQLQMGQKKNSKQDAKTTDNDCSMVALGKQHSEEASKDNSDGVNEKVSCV

| molecule | IC50 |
| --- | --- |
| COCCN1CCC[C@@H]1Cc1c[nH]c2ccc(OC)cc12 [(R) I-98] | 350 nM |
| [2H]C([2H])(c1c[nH]c2ccc(OCCCCCN3C(=O)C4CCCCC4C3=O)cc12)[C@H]1CCCN1C([2H])([2H])[2H] (mixture of isomers) [Rac (R) I-248] | 310 nM |
| CSc1ccc2[nH]cc(C[C@H]3CCCN3C)c2c1 [(R) I-1] | 154 nM |
| [2H]C([2H])(c1c[nH]c2ccc(OCCCCCN3C(=O)c4ccccc4C3=O)cc12)[C@H]1CCCN1C([2H])([2H])[2H] [(R) I-245] | 225 nM |
| [2H]C([2H])(c1c[nH]c2ccc(OCCCCN3C(=O)c4ccccc4C3=O)cc12)[C@H]1CCCN1C([2H])([2H])[2H] [(R) I-244] | 129 nM |

----------
Reported pEC50 is given for each of the following molecules.
Molecular target: human 5-HT2B receptor (Homo sapiens, UniProt P41595)
Sequence (P41595 whole entry): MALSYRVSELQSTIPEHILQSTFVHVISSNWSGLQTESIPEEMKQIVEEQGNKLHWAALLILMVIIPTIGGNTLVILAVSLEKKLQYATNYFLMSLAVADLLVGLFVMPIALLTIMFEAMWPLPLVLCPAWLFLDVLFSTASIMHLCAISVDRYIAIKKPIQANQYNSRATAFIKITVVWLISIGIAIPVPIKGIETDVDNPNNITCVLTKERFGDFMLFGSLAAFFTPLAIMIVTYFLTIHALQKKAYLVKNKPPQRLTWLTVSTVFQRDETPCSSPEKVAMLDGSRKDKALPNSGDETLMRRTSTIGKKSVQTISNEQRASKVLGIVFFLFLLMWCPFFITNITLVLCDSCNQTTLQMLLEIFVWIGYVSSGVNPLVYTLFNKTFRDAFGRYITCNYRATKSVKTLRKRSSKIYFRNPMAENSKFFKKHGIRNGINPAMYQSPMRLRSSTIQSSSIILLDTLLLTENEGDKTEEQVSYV
Test: Human 5-HT2B positive allosteric modulator (PAM) assay
Type: cell-based
Set-up: expressed in transfected cells; host or cells: HEK293
Settings: PAM mode: pre-incubation with sample, then agonist at EC20; HEK293 cells; read-out: EC50
Protocol: Compound potency (EC50) and efficacy (Max response) against the human 5-HT2B receptor in stably transfected HEK293 cells were determined in a GPCR cell-based assay. For Positive Allosteric Modulator determination, cells were pre-incubated with sample followed by EC20 addition. Intermediate dilution of sample stocks were performed to generate 5× samples in assay buffer. […] The results are expressed as percent efficacy relative to the maximum response of the control ligand (serotonin) in Table 14. […]
pEC50: −log10 of the molar value.
metricName: pEC50

| molecule | targetOrSystem | metricName | result |
| --- | --- | --- | --- |
| [2H]C([2H])(c1c[nH]c2ccc(OCCCCCN3C(=O)[C@H]4CCCC[C@H]4C3=O)cc12)[C@H]1CCCN1C([2H])([2H])[2H] [Cis (R) I-248] | human 5-HT2B receptor (Homo sapiens, UniProt P41595) | pEC50 | < 5.00 |
| [2H]C([2H])(c1c[nH]c2ccc(OCCCCCN3C(=O)c4ccccc4C3=O)cc12)[C@H]1CCCN1C([2H])([2H])[2H] [(R) I-245] | human 5-HT2B receptor (Homo sapiens, UniProt P41595) | pEC50 | < 5.48 |
| COCCN1CCC[C@@H]1Cc1c[nH]c2ccc(OC)cc12 [(R) I-98] | human 5-HT2B receptor (Homo sapiens, UniProt P41595) | pEC50 | < 5.00 |
| [2H]C([2H])(c1c[nH]c2ccc(OCCCCN3C(=O)c4ccccc4C3=O)cc12)[C@H]1CCCN1C([2H])([2H])[2H] [(R) I-244] | human 5-HT2B receptor (Homo sapiens, UniProt P41595) | pEC50 | 7.01 |
